System: SK-MEL24 metastatic melanoma cancer cell line
Experiment: MTT cell viability assay on SK-MEL24
Format: cell-based, human
Conditions: read-out: IC50 ± SD SK-MEL24; SK-MEL24, MTT, 24 h
Reported metric: IC50 (nM)
Value expressed in nM; do not type the unit.

Recorded results for 2 compounds are shown here.
- Compound: "C=CCc1ccc(OC(=O)CCC(=O)OC2OC3OC4(C)CCC5C(C)CCC(C2C)C35OO4)c(OC)c1 (stereo not drawn) [Compound 11ii]"
  Study system: "SK-MEL24 metastatic melanoma cancer cell line"
  Reported metric: "IC50"
  Result value: 5440
- Compound: "C[C@H]1[C@H](OC(=O)CCC(=O)Oc2ccc(CCO)cc2)O[C@@H]2O[C@@]3(C)CC[C@H]4[C@H](C)CC[C@@H]1[C@@]24OO3 [Compound 11iv]"
  Study system: "SK-MEL24 metastatic melanoma cancer cell line"
  Reported metric: "IC50"
  Result value: 2320

Next, consider the following compound.
Summary: C=C(C)C1CC=C(COC(=O)CCC(=O)OC2OC3OC4(C)CCC5C(C)CCC(C2C)C35OO4)CC1 (stereo not drawn) , SK-MEL24 metastatic melanoma cancer cell line, IC50 = 60
